# ASSAYED_SYSTEM: Myc proto-oncogene protein (Homo sapiens, UniProt P01106)
# Sequence (P01106 whole entry): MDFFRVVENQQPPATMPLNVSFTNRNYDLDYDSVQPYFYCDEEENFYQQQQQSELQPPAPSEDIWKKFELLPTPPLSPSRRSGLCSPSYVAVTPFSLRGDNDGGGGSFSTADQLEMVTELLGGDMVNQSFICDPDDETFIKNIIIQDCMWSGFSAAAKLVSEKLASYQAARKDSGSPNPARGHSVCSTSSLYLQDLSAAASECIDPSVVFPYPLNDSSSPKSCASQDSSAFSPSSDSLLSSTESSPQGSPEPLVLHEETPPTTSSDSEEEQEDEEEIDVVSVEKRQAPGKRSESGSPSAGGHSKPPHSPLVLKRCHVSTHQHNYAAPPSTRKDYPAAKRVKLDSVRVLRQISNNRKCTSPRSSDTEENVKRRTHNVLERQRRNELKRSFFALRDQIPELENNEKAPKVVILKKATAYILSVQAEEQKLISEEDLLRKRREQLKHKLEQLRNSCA
# ASSAY_DETAILS: Inhibition of human c-Myc assessed as reduction in c-Myc/Max/Ebox DNA complex formation using pre-formed complex of c-Myc and biotinylated DNA containing single Ebox-sequence followed by compound addition and further addition of his6-tagged c-Max and incubated for 2 hrs by AlphaScreen assay
pIC50: −log10 of the molar value.
OBSERVED_PROPERTY: pIC50

CC(C)N1CCc2c(sc(NC(=O)CCN(C)C)c2-c2nc3ccccc3s2)C1: 6.00 to 6.52

Would you mind giving pIC50 for every compound in the list below?
1. COCCNCCC(=O)Nc1sc2c(c1-c1nc3cc(-c4cccc(S(C)(=O)=O)c4)ccc3s1)CCNC2
2. COCCNCCC(=O)Nc1sc2c(c1-c1nc3ccc(-c4ccc5c(c4)OCO5)cc3s1)CCNC2
3. CC(C)NCCC(=O)Nc1sc2c(c1-c1nc3cc(C4=CCN(S(C)(=O)=O)CC4)ccc3s1)CCNC2
4. CC(C)NCCC(=O)Nc1sc2c(c1-c1nc3cc(C(C)O)ccc3s1)CCNC2 (stereo not drawn)
5. COCCNCCC(=O)Nc1sc2c(c1-c1nc3cc(-c4ccc(OC(C)C)nc4)ccc3s1)CCNC2
6. CCN(CC)CCC(=O)Nc1sc2c(c1-c1nc3ccccc3s1)CCNC2
7. CC(C)N1CCc2c(sc(NC(=O)CCNCCc3cccnc3)c2-c2nc3ccccc3s2)C1
8. CC(C)N1CCc2c(sc(NC(=O)CCNc3cccnc3)c2-c2nc3ccccc3s2)C1

Out:
["6.00 to 6.52", "< 5.00", "> 6.52", "> 6.52", "5.00 to 6.00", "6.00 to 6.52", "6.00 to 6.52", "5.00 to 6.00"]

###

# ASSAYED_SYSTEM: Myc proto-oncogene protein (Homo sapiens, UniProt P01106)
# ASSAY_DETAILS: Inhibition of human c-Myc assessed as reduction in c-Myc/Max/Ebox DNA complex formation using pre-formed complex of c-Myc and biotinylated DNA containing single Ebox-sequence followed by compound addition and further addition of his6-tagged c-Max and incubated for 2 hrs by AlphaScreen assay
OBSERVED_PROPERTY: IC50

In the examples that follow, each entry is paired with its recorded IC50.
CCN(CC)CCNCCC(=O)Nc1sc2c(c1-c1nc3ccccc3s1)CCN(C(C)C)C2: 300 to 1000 nM
COCCNCCC(=O)Nc1sc2c(c1-c1nc3cc(-c4cccc(S(N)(=O)=O)c4)ccc3s1)CCNC2: 300 to 1000 nM
CC(=O)Nc1sc2c(c1-c1nc3cc(-c4ccncc4)ccc3s1)CCNC2: 300 to 1000 nM
CSc1ccc2sc(-c3c(NC(=O)CCNC(C)C)sc4c3CCNC4)nc2c1: 300 to 1000 nM
COCCNCCC(=O)Nc1sc2c(c1-c1nc3cc(-c4ccccc4NC(C)=O)ccc3s1)CCNC2: > 10000 nM

// next entry
In: // returns reported IC50 for input `COCCNCCC(=O)Nc1sc2c(c1-c1nc3cc(-c4ccccc4NS(C)(=O)=O)ccc3s1)CCNC2`
Out: 1000 to 10000 nM

###

# ASSAYED_SYSTEM: Myc proto-oncogene protein (Homo sapiens, UniProt P01106)
# ASSAY_DETAILS: Inhibition of human c-Myc assessed as reduction in c-Myc/Max/Ebox DNA complex formation using pre-formed complex of c-Myc and biotinylated DNA containing single Ebox-sequence followed by compound addition and further addition of his6-tagged c-Max and incubated for 2 hrs by AlphaScreen assay
OBSERVED_PROPERTY: IC50

Below are worked cases with known answers.
CC(C)NCCC(=O)Nc1sc2c(c1-c1nc3ccc(-c4cnn(C)c4)cc3s1)CCNC2: < 0.3 µM
COCCNCCC(=O)Nc1sc2c(c1-c1nc3ccc(-c4c(F)cccc4F)cc3s1)CCNC2: > 10 µM
COCCNCCC(=O)Nc1sc2c(c1-c1nc3ccccc3s1)CCN[C@@H]2C: < 0.3 µM
COCCNCCC(=O)Nc1sc2c(c1-c1nc3ccc(-c4cnccc4C)cc3s1)CCNC2: > 10 µM
COCCNCCC(=O)Nc1sc2c(c1-c1nc3cc(-c4ccc(N5CCN(C)CC5)cc4)ccc3s1)CCNC2: 0.3 to 1 µM

// for each compound in input: emit IC50
1. CC(C)N1CCc2c(sc(NC(=O)CCNc3cccc(F)c3)c2-c2nc3ccccc3s2)C1
2. CCOc1ccc(-c2ccc3nc(-c4c(NC(=O)CCNCCOC)sc5c4CCNC5)sc3c2)cn1
3. CC(C)NCCC(=O)Nc1sc2c(c1-c1nc3cc(N4CCS(=O)(=O)CC4)ccc3s1)CCNC2
4. CC(C)NCCC(=O)Nc1sc2c(c1-c1nc3cc(C4=CCNCC4)ccc3s1)CCNC2

Out:
> 10 µM
1 to 10 µM
0.3 to 1 µM
< 0.3 µM
